Reported values of IC50 for individual entries
Target: PI3Kδ (p110δ/p85α) (Homo sapiens (Human), UniProt O00329)
Sequence (O00329 whole entry, species assumed): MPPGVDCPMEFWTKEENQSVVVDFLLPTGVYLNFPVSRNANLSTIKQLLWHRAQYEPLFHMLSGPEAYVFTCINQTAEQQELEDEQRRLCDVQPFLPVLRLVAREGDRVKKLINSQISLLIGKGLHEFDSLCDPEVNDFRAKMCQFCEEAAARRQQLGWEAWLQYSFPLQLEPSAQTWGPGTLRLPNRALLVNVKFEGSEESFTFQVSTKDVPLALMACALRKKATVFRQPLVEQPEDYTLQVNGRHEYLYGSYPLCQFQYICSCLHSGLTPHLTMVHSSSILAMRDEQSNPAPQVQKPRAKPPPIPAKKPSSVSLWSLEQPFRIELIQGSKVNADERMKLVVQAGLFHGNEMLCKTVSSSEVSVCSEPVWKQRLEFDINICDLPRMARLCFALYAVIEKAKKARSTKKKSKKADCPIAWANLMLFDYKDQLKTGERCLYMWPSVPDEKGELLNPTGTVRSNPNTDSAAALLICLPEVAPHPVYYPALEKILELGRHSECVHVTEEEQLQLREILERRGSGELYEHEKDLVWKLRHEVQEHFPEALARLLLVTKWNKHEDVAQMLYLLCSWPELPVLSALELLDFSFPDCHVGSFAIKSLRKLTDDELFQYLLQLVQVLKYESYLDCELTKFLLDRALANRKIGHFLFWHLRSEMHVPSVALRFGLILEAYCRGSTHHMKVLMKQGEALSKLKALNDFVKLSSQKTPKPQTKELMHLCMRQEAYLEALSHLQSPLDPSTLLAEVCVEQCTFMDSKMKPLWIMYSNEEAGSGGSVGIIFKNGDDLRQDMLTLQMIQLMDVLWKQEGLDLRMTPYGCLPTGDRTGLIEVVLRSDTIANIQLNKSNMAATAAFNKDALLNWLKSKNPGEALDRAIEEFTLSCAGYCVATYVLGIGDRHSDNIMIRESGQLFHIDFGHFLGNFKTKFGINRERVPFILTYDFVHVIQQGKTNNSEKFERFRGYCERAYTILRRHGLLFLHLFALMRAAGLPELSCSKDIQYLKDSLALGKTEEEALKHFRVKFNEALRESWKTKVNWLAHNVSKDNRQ
Sequence (P27986 whole entry partner, species assumed): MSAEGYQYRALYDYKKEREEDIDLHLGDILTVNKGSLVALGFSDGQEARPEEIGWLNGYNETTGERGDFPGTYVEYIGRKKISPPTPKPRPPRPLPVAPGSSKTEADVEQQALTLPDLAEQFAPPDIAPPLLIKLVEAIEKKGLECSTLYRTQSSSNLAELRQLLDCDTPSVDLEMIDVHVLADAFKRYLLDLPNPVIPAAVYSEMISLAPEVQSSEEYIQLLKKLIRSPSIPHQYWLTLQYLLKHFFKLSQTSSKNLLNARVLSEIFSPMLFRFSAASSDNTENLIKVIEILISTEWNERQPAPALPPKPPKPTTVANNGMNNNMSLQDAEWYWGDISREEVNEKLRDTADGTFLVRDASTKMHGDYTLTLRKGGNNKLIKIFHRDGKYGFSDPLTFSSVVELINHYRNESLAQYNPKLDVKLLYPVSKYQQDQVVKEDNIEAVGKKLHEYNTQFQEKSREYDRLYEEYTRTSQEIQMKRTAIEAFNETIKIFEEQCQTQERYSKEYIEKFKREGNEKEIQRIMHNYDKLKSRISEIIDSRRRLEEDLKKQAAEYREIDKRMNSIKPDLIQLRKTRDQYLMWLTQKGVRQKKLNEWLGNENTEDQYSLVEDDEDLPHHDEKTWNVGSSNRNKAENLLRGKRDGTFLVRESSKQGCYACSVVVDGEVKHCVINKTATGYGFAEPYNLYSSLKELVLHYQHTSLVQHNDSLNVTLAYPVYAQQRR
Assay: PI3Kδ Scintillation Proximity Assay (Assay A3)
Type: biochemical
Settings: column b, Assay A3 (SPA), 20 μM ATP
Counter-ions that a name gives are not always drawn.

Cc1cccc2nc(C(C)Nc3ncnc4[nH]cnc34)c(-c3ccc(C#N)cc3)c(=O)n12 (stereo not drawn) [Example 61, trifluoroacetic acid salt] = > 0.5 µM
CC(Nc1nc(N)nc2[nH]cnc12)c1nc2sccn2c(=O)c1-c1ccccc1 (stereo not drawn) [Example 27] = 0.1 to 0.5 µM
Cc1cccc2nc(C(C)Nc3ncnc4[nH]cnc34)c(-c3ccccc3)c(=O)n12 (stereo not drawn) [Example 49, trifluoroacetic acid salt] = < 0.05 µM
CC(Nc1ncnc2[nH]cnc12)c1nc2ccccn2c(=O)c1-c1cc(F)cc(F)c1 (stereo not drawn) [Example 79, trifluoroacetic acid salt] = > 0.5 µM
Cc1ccccc1-c1c(C(C)Nc2ncnc3[nH]cnc23)nc2cccc(C)n2c1=O (stereo not drawn) [Example 63, trifluoroacetic acid salt] = 0.1 to 0.5 µM
Cc1cccc2nc(C(C)Nc3ncnc4[nH]cnc34)c(-c3cccc(F)c3)c(=O)n12 (single isomer, unassigned) [Example 72, trifluoroacetic acid salt] = > 0.5 µM
CC(Nc1nc(N)nc2[nH]cnc12)c1nc2sccn2c(=O)c1-c1cccc(F)c1 (stereo not drawn) [Example 26] = 0.1 to 0.5 µM
Cc1csc2nc(C(C)Nc3ncnc4[nH]cnc34)c(-c3nccs3)c(=O)n12 (stereo not drawn) [Example 20, trifluoroacetic acid salt] = < 0.05 µM
Cc1csc2nc(C(C)Nc3ncnc4[nH]cnc34)c(-c3cncc(F)c3)c(=O)n12 (stereo not drawn) [Example 42, trifluoroacetic acid salt] = 0.1 to 0.5 µM
Cc1csc2nc(C(C)Nc3nc(N)nc4[nH]cnc34)c(-c3cccc(F)c3F)c(=O)n12 (stereo not drawn) [Example 34, trifluoroacetic acid salt] = < 0.05 µM

Req: Respond only with IC50 recorded for Cc1cccc2nc(C(C)Nc3ncnc4[nH]cnc34)c(-c3ccccc3Cl)c(=O)n12 (stereo not drawn) [Example 57, trifluoroacetic acid salt]
Resp: < 0.05 µM

---

pIC50: −log10 of the molar value. Counter-ions that a name gives are not always drawn.
Hi! I'm sharing some pIC50 results obtained with PI3Kγ (Homo sapiens (Human), UniProt P48736).
Sequence (P48736 whole entry, species assumed): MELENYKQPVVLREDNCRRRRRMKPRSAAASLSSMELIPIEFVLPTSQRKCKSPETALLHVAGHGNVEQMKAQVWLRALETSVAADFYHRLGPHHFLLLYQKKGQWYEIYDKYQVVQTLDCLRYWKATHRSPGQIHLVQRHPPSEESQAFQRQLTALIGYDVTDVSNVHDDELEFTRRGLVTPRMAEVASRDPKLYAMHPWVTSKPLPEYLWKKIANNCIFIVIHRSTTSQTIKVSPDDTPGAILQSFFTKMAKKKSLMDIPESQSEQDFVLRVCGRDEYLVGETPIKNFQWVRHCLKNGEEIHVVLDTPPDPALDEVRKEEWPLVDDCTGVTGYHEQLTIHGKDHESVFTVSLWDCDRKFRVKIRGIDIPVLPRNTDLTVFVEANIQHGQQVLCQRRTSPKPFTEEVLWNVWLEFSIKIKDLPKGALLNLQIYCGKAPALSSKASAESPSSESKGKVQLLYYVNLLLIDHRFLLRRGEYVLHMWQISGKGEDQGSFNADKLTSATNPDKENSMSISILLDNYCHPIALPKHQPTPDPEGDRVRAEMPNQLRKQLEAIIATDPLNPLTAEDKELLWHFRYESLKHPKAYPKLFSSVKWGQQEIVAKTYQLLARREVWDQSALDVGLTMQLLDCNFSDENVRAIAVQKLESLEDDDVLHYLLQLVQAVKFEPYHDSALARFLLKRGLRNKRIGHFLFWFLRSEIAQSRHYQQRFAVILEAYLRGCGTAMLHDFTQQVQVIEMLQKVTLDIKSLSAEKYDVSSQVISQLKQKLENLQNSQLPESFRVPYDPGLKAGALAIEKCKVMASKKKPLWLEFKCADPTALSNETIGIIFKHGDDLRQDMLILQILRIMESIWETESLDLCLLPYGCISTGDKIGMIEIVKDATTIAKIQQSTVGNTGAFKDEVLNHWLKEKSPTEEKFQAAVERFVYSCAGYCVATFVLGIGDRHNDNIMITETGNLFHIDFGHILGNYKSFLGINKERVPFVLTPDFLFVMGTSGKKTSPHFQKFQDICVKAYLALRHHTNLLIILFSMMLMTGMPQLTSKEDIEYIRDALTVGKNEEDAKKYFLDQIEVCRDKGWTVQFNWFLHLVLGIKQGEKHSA

Cc1csc2nc(C(C)Nc3nc(N)nc4[nH]cnc34)c(-c3cccc(F)c3)c(=O)n12 (stereo not drawn) [Example 11] = 6.30 to 7.00

Req: Lab note: PI3Kγ (Homo sapiens (Human), UniProt P48736) assay, enter pIC50 for Cc1csc2nc(C(C)Nc3nc(N)nc4[nH]cnc34)c(-c3cc(F)cc(F)c3)c(=O)n12 (stereo not drawn) [Example 13] here
Resp: 6.30 to 7.00

Req: Lab note: PI3Kγ (Homo sapiens (Human), UniProt P48736) assay, enter pIC50 for Cc1csc2nc(C(C)Nc3ncnc4[nH]cnc34)c(-c3cccc(F)c3)c(=O)n12 (stereo not drawn) [Example 10] here
Resp: < 6.30

Req: Lab note: PI3Kγ (Homo sapiens (Human), UniProt P48736) assay, enter pIC50 for Cc1cccc2nc(C(C)Nc3ncnc4[nH]cnc34)c(-c3cccc(F)c3)c(=O)n12 (single isomer, unassigned) [Example 71, trifluoroacetic acid salt] here
Resp: < 6.30

Req: Lab note: PI3Kγ (Homo sapiens (Human), UniProt P48736) assay, enter pIC50 for Cc1csc2nc([C@H](C)Nc3ncnc4[nH]cnc34)c(-c3cccc(F)c3)c(=O)n12 [Example 15] here
Resp: < 6.30

Req: Lab note: PI3Kγ (Homo sapiens (Human), UniProt P48736) assay, enter pIC50 for Cc1csc2nc(C(C)Nc3nc(N)nc4[nH]cnc34)c(-c3ccccc3)c(=O)n12 (stereo not drawn) [Example 9] here
Resp: 7.00 to 7.30

---

Biological target: PI3Kδ (p110δ/p85α) (Homo sapiens (Human), UniProt O00329)
Assay: AlphaScreen Assay for PI3Kδ (Assay A1)
Type: biochemical
Conditions: column a, 20 μM ATP
property_measured: IC50

CCC(Nc1ncnc2[nH]cnc12)c1nc2cccc(C)n2c(=O)c1-c1ccccc1 (stereo not shown) [Example 2] = 50 to 100 nM
Cc1csc2nc(C(C)Nc3ncnc4[nH]cnc34)c(-c3cc(F)cc(F)c3)c(=O)n12 (stereo not shown) [Example 12] = < 50 nM
CCC(Nc1ncnc2[nH]cnc12)c1nc2cccc(C)n2c(=O)c1-c1cn[nH]c1 (stereo not shown) [Example 7] = 100 to 500 nM

Req: Respond only with IC50 recorded for Cc1csc2nc(C(C)Nc3nc(N)nc4[nH]cnc34)c(-c3ccccc3)c(=O)n12 (stereo not shown) [Example 9]
Resp: < 50 nM

Req: Respond only with IC50 recorded for CCC(Nc1ncnc2[nH]cnc12)c1nc2cccc(C)n2c(=O)c1-c1cncc(F)c1 (stereo not shown) [Example 3]
Resp: 100 to 500 nM

Req: Respond only with IC50 recorded for Cc1csc2nc(C(C)Nc3ncnc4[nH]cnc34)c(-c3ccccn3)c(=O)n12 (stereo not shown) [Example 14]
Resp: 50 to 100 nM

Req: Respond only with IC50 recorded for Cc1cccc2nc(C(C)n3cnc4c(N)ncnc43)c(-c3ccccc3)c(=O)n12 (stereo not shown) [Example 1]
Resp: 100 to 500 nM

Req: Respond only with IC50 recorded for CCC(Nc1ncnc2[nH]cnc12)c1nc2cccc(C)n2c(=O)c1-c1cccnc1F (stereo not shown) [Example 6]
Resp: 100 to 500 nM

Req: Respond only with IC50 recorded for Cc1csc2nc(C(C)Nc3nc(N)nc4[nH]cnc34)c(-c3cccc(F)c3)c(=O)n12 (stereo not shown) [Example 11]
Resp: < 50 nM

---

Molecular target: PI3Kδ (p110δ/p85α) (Homo sapiens (Human), UniProt O00329)
Assay: PI3Kδ Scintillation Proximity Assay (Assay A3)
Type: biochemical
Conditions: column b, Assay A3 (SPA), 20 μM ATP
pIC50: −log10 of the molar value. Structures can show the parent of a compound that is named as a salt.
property_measured: pIC50

Completed entries (count: 2):
Cc1cccc2nc(C(C)n3cnc4c(N)ncnc43)c(-c3ccccc3)c(=O)n12 (centres unmarked) = 6.30 to 7.00
Cc1csc2nc(C(C)Nc3ncnc4[nH]cnc34)c(-c3cc(F)cc(Cl)c3)c(=O)n12 (centres unmarked) [Example 37, trifluoroacetic acid salt] = 6.30 to 7.00

As a next step, examine the compound that follows.
Req: Lab note: PI3Kδ (p110δ/p85α) (Homo sapiens (Human), UniProt O00329) assay, enter pIC50 for Cc1cccc2nc(C(C)Nc3ncnc4[nH]cnc34)c(-c3ccc(F)c(F)c3)c(=O)n12 (centres unmarked) [Example 68, trifluoroacetic acid salt] here
Resp: 6.30 to 7.00

---

Target: PI3Kδ (Homo sapiens (Human))
Sequence (O00329 whole entry, species assumed): as the sequence (O00329 whole entry, species assumed) above
Sequence (P27986 whole entry partner, species assumed): as the sequence (P27986 whole entry partner, species assumed) above
property_measured: IC50

Req: Lab note: PI3Kδ (Homo sapiens (Human)) assay, enter IC50 for Cc1csc2nc(C(C)Nc3ncnc4[nH]cnc34)c(-c3cc(F)cc(F)c3)c(=O)n12 (single isomer, unassigned) here
Resp: < 50 nM

---

Biological target: PI3Kδ (p110δ/p85α) (Homo sapiens (Human), UniProt O00329)
Experiment: PI3Kδ Scintillation Proximity Assay (Assay A3)
Type: biochemical
Details: column b, Assay A3 (SPA), 20 μM ATP
Structures can show the parent of a compound that is named as a salt.
Reported values of IC50 for individual entries

CC(Nc1ncnc2[nH]cnc12)c1nc2sccn2c(=O)c1-c1cccc(F)c1 (centres unmarked) = > 500 nM
CCc1cccc2nc(C(C)Nc3nc(N)nc4[nH]cnc34)c(-c3cc(F)cc(F)c3)c(=O)n12 (centres unmarked) [Example 77, trifluoroacetic acid salt] = 50 to 100 nM
Cc1cccc2nc(C(C)Nc3nc(N)nc4[nH]cnc34)c(-c3ccccc3)c(=O)n12 (centres unmarked) [Example 50, trifluoroacetic acid salt] = < 50 nM
Cc1cccc2nc(C(C)Nc3nc(N)nc4[nH]cnc34)c(-c3cccc(F)c3)c(=O)n12 (centres unmarked) [Example 73, trifluoroacetic acid salt] = < 50 nM
CC(Nc1nc(N)nc2[nH]cnc12)c1nc2sccn2c(=O)c1-c1cc(F)cc(F)c1 (centres unmarked) = > 500 nM

Req: Respond only with IC50 recorded for Cc1cccc(-c2c(C(C)Nc3nc(N)nc4[nH]cnc34)nc3cccc(C)n3c2=O)c1 (centres unmarked) [Example 52, trifluoroacetic acid salt]
Resp: < 50 nM

Req: Respond only with IC50 recorded for Cc1cccc2nc(C(C)Nc3ncnc4[nH]cnc34)c(-c3cccc(F)c3)c(=O)n12 (single isomer, unassigned) [Example 71, trifluoroacetic acid salt]
Resp: < 50 nM

Req: Respond only with IC50 recorded for COc1cccc(-c2c(C(C)Nc3ncnc4[nH]cnc34)nc3cccc(C)n3c2=O)c1 (centres unmarked) [Example 65, trifluoroacetic acid salt]
Resp: < 50 nM

Req: Respond only with IC50 recorded for Cc1csc2nc(C(C)Nc3ncnc4[nH]cnc34)c(-c3ccncc3)c(=O)n12 (centres unmarked)
Resp: 100 to 500 nM

Req: Respond only with IC50 recorded for Cc1csc2nc(C(C)Nc3ncnc4[nH]cnc34)c(-c3ccccc3F)c(=O)n12 (centres unmarked) [Example 40, trifluoroacetic acid salt]
Resp: < 50 nM

Req: Respond only with IC50 recorded for Cc1cccc(-c2c(C(C)Nc3ncnc4[nH]cnc34)nc3cccc(C)n3c2=O)c1 (centres unmarked) [Example 51, trifluoroacetic acid salt]
Resp: 100 to 500 nM

Req: Respond only with IC50 recorded for CC(Nc1ncnc2[nH]cnc12)c1nc2sccn2c(=O)c1-c1cc(F)cc(F)c1 (centres unmarked)
Resp: > 500 nM

Req: Respond only with IC50 recorded for CCc1cccc2nc(C(C)Nc3ncnc4[nH]cnc34)c(-c3ccc(F)cc3)c(=O)n12 (centres unmarked) [Example 78, trifluoroacetic acid salt]
Resp: < 50 nM

Req: Respond only with IC50 recorded for CCC(Nc1ncnc2[nH]cnc12)c1nc2cccc(C)n2c(=O)c1-c1cccnc1F (centres unmarked)
Resp: 100 to 500 nM

Req: Respond only with IC50 recorded for Cc1csc2nc(C(C)Nc3ncnc4[nH]cnc34)c(-c3cccc(F)c3F)c(=O)n12 (centres unmarked) [Example 41, trifluoroacetic acid salt]
Resp: 50 to 100 nM

Req: Respond only with IC50 recorded for Cc1cccc2nc(C(C)Nc3ncnc4[nH]cnc34)c(-c3cc(F)cc(F)c3)c(=O)n12 (centres unmarked) [Example 69, trifluoroacetic acid salt]
Resp: 100 to 500 nM

Req: Respond only with IC50 recorded for CCC(Nc1ncnc2[nH]cnc12)c1nc2cccc(C)n2c(=O)c1-c1cncc(F)c1 (centres unmarked)
Resp: 100 to 500 nM
